tested on: HCC-78; test: relative viability (nuclei count vs DMSO), 5 days (fraction); higher = more cells survive; conditions: first compound 0.4 µM
Endpoint: relative viability
Just the number, please, no unit attached.

* O=C(O)c1ccc(-c2c[nH]c3ncc(-c4ccccc4)cc23)cc1C1CCCC1 + CS(=O)(=O)CCNCc1ccc(-c2ccc3ncnc(Nc4ccc(OCc5cccc(F)c5)c(Cl)c4)c3c2)o1 [Lapatinib] (partner 2 µM) | 0.979
* O=C(O)c1ccc(-c2c[nH]c3ncc(-c4ccccc4)cc23)cc1C1CCCC1 + NC(=O)Nc1cc(-c2cccc(F)c2)sc1C(=O)N[C@H]1CCCNC1 [AZD7762] (partner 0.2 µM) | 0.779
* O=C(O)c1ccc(-c2c[nH]c3ncc(-c4ccccc4)cc23)cc1C1CCCC1 + CS(=O)(=O)N1CCN(Cc2cc3nc(-c4cccc5[nH]ncc45)nc(N4CCOCC4)c3s2)CC1 [Pictilisib] (partner 1 µM) | 0.179

Now for a further compound.
Query relative viability on HCC-78 for O=C(O)c1ccc(-c2c[nH]c3ncc(-c4ccccc4)cc23)cc1C1CCCC1 + N=C(N)NC(=N)NCCc1ccccc1 [Phenformin] (partner 250 µM)
0.828

###

tested on: 201T; test: relative viability (nuclei count vs DMSO), 5 days (fraction); higher = more cells survive; details: first compound 8 µM
relative viability values by entry

* C=C1C(=O)O[C@@H](CCCCCCCC)[C@@H]1C(=O)O [C-75] + CC(=O)c1c(C)c2cnc(Nc3ccc(N4CCNCC4)cn3)nc2n(C2CCCC2)c1=O [Palbociclib] (partner 0.5 µM) | 0.347
* C=C1C(=O)O[C@@H](CCCCCCCC)[C@@H]1C(=O)O [C-75] + Cc1cc(Nc2cc(N3CCN(C)CC3)nc(Sc3ccc(NC(=O)C4CC4)cc3)n2)n[nH]1 [Tozasertib] (partner 0.1 µM) | 1.02
* C=C1C(=O)O[C@@H](CCCCCCCC)[C@@H]1C(=O)O [C-75] + Cc1nc(NC(=O)N2CCC[C@H]2C(N)=O)sc1-c1ccnc(C(C)(C)C(F)(F)F)c1 [Alpelisib] (partner 2 µM) | 1.07

// below: relative viability requested for another compound
# value lookup — system 201T, readout relative viability, item C=C1C(=O)O[C@@H](CCCCCCCC)[C@@H]1C(=O)O [C-75] + CC(C)C[C@H](NC(=O)[C@H](Cc1ccccc1)NC(=O)c1cnccn1)B(O)O [Bortezomib] (partner 0.002 µM)
1.08

###

tested on: NCI-H1993; test: relative viability (nuclei count vs DMSO), 5 days (fraction); higher = more cells survive; details: first compound 1 µM
Endpoint: relative viability
# print the numeric value only

Reference set, count: 3
• NC(=O)Nc1cc(-c2cccc(F)c2)sc1C(=O)N[C@H]1CCCNC1 [AZD7762] + Nc1nc2[nH]cc(CCc3ccc(C(=O)N[C@@H](CCC(=O)O)C(=O)O)cc3)c2c(=O)[nH]1 [Pemetrexed] (partner 0.2 µM) = 0.578
• NC(=O)Nc1cc(-c2cccc(F)c2)sc1C(=O)N[C@H]1CCCNC1 [AZD7762] + Cc1cc(Nc2cc(N3CCN(C)CC3)nc(Sc3ccc(NC(=O)C4CC4)cc3)n2)n[nH]1 [Tozasertib] (partner 0.1 µM) = 0.547
• NC(=O)Nc1cc(-c2cccc(F)c2)sc1C(=O)N[C@H]1CCCNC1 [AZD7762] + Nc1ncn([C@H]2C[C@H](O)[C@@H](CO)O2)c(=O)n1 [Decitabine] (partner 2 µM) = 0.638

Can you share its relative viability? I mean this compound: NC(=O)Nc1cc(-c2cccc(F)c2)sc1C(=O)N[C@H]1CCCNC1 [AZD7762] + O=C(c1cc(Cc2n[nH]c(=O)c3ccccc23)ccc1F)N1CCN(C(=O)C2CC2)CC1 [Olaparib] (partner 8 µM)
0.922

Request the reported relative viability associated with NC(=O)Nc1cc(-c2cccc(F)c2)sc1C(=O)N[C@H]1CCCNC1 [AZD7762] + Cc1nc(NC(=O)N2CCC[C@H]2C(N)=O)sc1-c1ccnc(C(C)(C)C(F)(F)F)c1 [Alpelisib] (partner 2 µM)
0.753

Entry NC(=O)Nc1cc(-c2cccc(F)c2)sc1C(=O)N[C@H]1CCCNC1 [AZD7762] + CC(=O)c1c(C)c2cnc(Nc3ccc(N4CCNCC4)cn3)nc2n(C2CCCC2)c1=O [Palbociclib] (partner 0.5 µM) : reported relative viability = ?
0.652

For the compound NC(=O)Nc1cc(-c2cccc(F)c2)sc1C(=O)N[C@H]1CCCNC1 [AZD7762] + C[C@@H](Oc1cc(-c2cnn(C3CCNCC3)c2)cnc1N)c1c(Cl)ccc(F)c1Cl [Crizotinib] (partner 1 µM) , what relative viability is on record?
0.808
